- targetOfAssay: human GCG receptor (human, UniProt P47871 26-477)
- Sequence (P47871 26-477): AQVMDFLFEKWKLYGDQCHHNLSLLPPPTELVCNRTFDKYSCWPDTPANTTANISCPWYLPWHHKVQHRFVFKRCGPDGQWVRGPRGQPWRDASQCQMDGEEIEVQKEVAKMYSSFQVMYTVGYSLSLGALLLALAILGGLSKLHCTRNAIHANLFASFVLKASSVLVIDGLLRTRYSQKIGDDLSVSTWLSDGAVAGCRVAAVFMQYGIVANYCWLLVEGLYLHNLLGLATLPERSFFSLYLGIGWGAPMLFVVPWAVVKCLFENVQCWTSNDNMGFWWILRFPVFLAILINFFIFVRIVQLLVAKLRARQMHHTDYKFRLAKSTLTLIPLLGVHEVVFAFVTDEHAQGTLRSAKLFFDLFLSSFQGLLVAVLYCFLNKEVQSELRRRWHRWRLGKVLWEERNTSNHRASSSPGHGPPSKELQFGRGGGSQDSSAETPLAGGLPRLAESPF
- assay: cell-based or functional assay
Positions of bridges follow the written chain, without caps; N, C: chain ends. Non-standard residues stand in square brackets, D forms with d. No end group written: not given here. *: point of attachment. Acetyl(2-(4-imidazolyl)) = O=C(Cc1c[nH]cn1)*; Aib = CC(C)(N)C(=O)O
reportedMetric: In vitro activity relative to native peptide (%), vs. Glucagon (cAMP EC50)

{"columns": ["binder", "readingUnit", "valueQualifier", "measuredValue"],
 "data": [
  ["{Acetyl(2-(4-imidazolyl))}-[Aib]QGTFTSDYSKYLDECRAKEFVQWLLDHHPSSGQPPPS (bridge 15-19) [trigonal agonist of SEQ ID NO: 73]", "%", "=", 5.4],
  ["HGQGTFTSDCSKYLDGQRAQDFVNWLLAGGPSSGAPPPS [trigonal agonist of SEQ ID NO: 48]", "%", "<", 0.1],
  ["{Acetyl(2-(4-imidazolyl))}-[Aib]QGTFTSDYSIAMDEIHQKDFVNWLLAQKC (bridge 15-19) [trigonal agonist of SEQ ID NO: 92]", "%", "<", 0.1],
  ["Y[Aib]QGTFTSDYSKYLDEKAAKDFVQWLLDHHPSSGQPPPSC (bridge 16-20) [trigonal agonist of SEQ ID NO: 77]", "%", "=", 12.2],
  ["{Acetyl(2-(4-imidazolyl))}-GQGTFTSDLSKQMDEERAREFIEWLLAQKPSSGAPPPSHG [trigonal agonist of SEQ ID NO: 17]", "%", "<", 0.1],
  ["H[Aib]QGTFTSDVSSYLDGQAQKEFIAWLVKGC [trigonal agonist of SEQ ID NO: 2]", "%", "<", 0.1],
  ["Y[Aib]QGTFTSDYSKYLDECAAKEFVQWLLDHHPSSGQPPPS (bridge 16-20) [trigonal agonist of SEQ ID NO: 64]", "%", "=", 60.1],
  ["H[Aib]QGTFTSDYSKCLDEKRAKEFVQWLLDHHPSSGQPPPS (bridge 16-20) [trigonal agonist of SEQ ID NO: 65]", "%", "=", 25.2]
]}
